Kindly supply the reported Ki values for the records listed here.
# TARGET SYSTEM: recombinant Mcl-1 (residues 172-327) (Homo sapiens (Human))
# Sequence (Q07820 172-327): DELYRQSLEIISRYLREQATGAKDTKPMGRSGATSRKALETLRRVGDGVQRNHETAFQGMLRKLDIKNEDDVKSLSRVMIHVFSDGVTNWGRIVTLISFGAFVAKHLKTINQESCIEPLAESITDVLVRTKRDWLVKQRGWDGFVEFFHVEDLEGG
# EXPERIMENT NOTES: Fluorescence polarization anisotropy competition assay (FITC-Bak or FITC-Bim BH3 peptide) with Mcl-1
# Assay type: binding
# TEST CONDITIONS: Table 2; Ki bins given in nM; FITC-Bak or FITC-Bim peptide competition; Ki converted from IC50; read-out: Ki for Inhibition of Mcl-1

Data request: Looking for the measured Ki of Cc1cc(OCCCc2c(C(=O)N(C)Cc3ccc(C(=O)O)cc3)n(CCN3CCOCC3)c3c(-c4c(C)nn(C)c4C)c(Cl)ccc23)cc(C)c1Cl , can you help?
Data returned: < 50 nM

Data request: Looking for the measured Ki of Cc1cc(OCCCc2c3n(c4c(-c5c(C)nn(C)c5C)cccc24)CCCN(Cc2ccc(-c4nnn[nH]4)cc2)C3=O)cc(C)c1Cl , can you help?
Data returned: < 50 nM

Data request: Looking for the measured Ki of Cc1nn(C)c(C)c1-c1cccc2c(CCCOc3cccc4ccccc34)c(C(=O)Nc3cncc(C(=O)O)c3)[nH]c12 , can you help?
Data returned: 51 to 100 nM

Data request: Looking for the measured Ki of Cc1cc(OCCCc2c(C(=O)NCc3ccc(C(=O)NCc4ccccc4C(F)(F)F)o3)[nH]c3ccccc23)cc(C)c1Cl , can you help?
Data returned: 101 to 299 nM

Data request: Looking for the measured Ki of Cc1cc(OCCCc2c3n(c4c(-c5c(C)nn(C)c5C)c(Cl)ccc24)CCCN(c2cc(C(=O)O)c4c(Br)cn(C)c4c2)C3=O)cc(C)c1Cl , can you help?
Data returned: < 50 nM

Data request: Looking for the measured Ki of COC(=O)c1cccc(N2CCN(C(=O)c3[nH]c4cc(Cl)ccc4c3CCCOc3cc(C)c(Cl)c(C)c3)CC2)c1 , can you help?
Data returned: 501 to 999 nM

Data request: Looking for the measured Ki of Cc1cc(OCCCc2c3n(c4c(-c5c(C)nn(C)c5C)c(Cl)ccc24)CCCN(c2cc(C(=O)O)cc4c2c(C=O)cn4C)C3=O)cc(C)c1Cl , can you help?
Data returned: < 50 nM

Data request: Looking for the measured Ki of Cc1cc(OCCCc2c3n(c4c(-c5c(C)nn(C)c5C)c(Cl)ccc24)[C@@H](C)CN(Cc2ccc(C(=O)O)cc2)C3=O)cc(C)c1Cl , can you help?
Data returned: < 50 nM

Data request: Looking for the measured Ki of Cc1cc(OCCCc2c3n(c4c(-c5c(C)nn(C)c5C)c(Cl)ccc24)C[C@@H](C)N(Cc2ccc(C(=O)O)cn2)C3=O)cc(C)c1Cl , can you help?
Data returned: < 50 nM

Data request: Looking for the measured Ki of Cc1cc(OCCCc2c(C(=O)NCc3ccc(N4CCCC4)c(C(=O)O)c3)[nH]c3c(-c4c(C)nn(C)c4C)cccc23)cc(C)c1Cl , can you help?
Data returned: 51 to 100 nM

Data request: Looking for the measured Ki of Cc1cc(OCCCc2c3n(c4c(-c5c(C)nn(C)c5C)c(Cl)ccc24)CCC(C)N(Cc2ccc(C(=O)O)cc2)C3=O)cc(C)c1Cl (stereo not shown) , can you help?
Data returned: < 50 nM

Data request: Looking for the measured Ki of Cc1cc(OCCCc2c(C(=O)Nc3cc(C(=O)O)cc(N(C)C)c3)[nH]c3c(-c4c(C)nn(C)c4C)c(Cl)ccc23)cc(C)c1Cl , can you help?
Data returned: < 50 nM

Data request: Looking for the measured Ki of Cc1cc(OCCCc2c(C(=O)N3CCC(C(=O)O)C3)[nH]c3c(-c4c(C)nn(C)c4C)c(Cl)ccc23)cc(C)c1Cl (stereo not shown) , can you help?
Data returned: < 50 nM
